Taken from ChEMBL document CHEMBL1142340.

Tested on: A549
PROTOCOL: Antiproliferative activity against human A549 cells after 3 days
Format: functional, cell-based
RECORDED_CONDITIONS: A549, 72 h
Listing of entries alongside the reported IC50.
The reply should be a number in µM, with the unit left off.

Example entries begin here.
> print(dat)
                chemical.string  reported.endpoint  reported.measurement
1  CCCC(CCC)C(=O)OCCSS(C)(=O)=O               IC50                   154
2             Br.CS(=O)(=O)SCCN               IC50                   154

According to the records, this compound CCCC(CCC)C(=O)Oc1ccc(-c2cc(=S)ss2)cc1 displays IC50 of 89

Record summary for CS(=O)(=O)SCCO : reported IC50 = 161

# IC50 (compound: Oc1ccc(-c2cc(=S)ss2)cc1 ) is 66

###

SYSTEM: Histone deacetylase
PROTOCOL: Inhibition of human HDAC in HeLa nuclear extracts
With a cut-off of 60 µM, any IC50 strictly below it is called label 1; any IC50 meeting it or above is called label 0.

Query block: Please let me know if Br.CS(=O)(=O)SCCN shows IC50 below 60 µM.
Result block: label 0

###

PROTOCOL: Dissociation constant, pKa of the compound
Assay type: physicochemical
REPORTED_ENDPOINT: pKa
Response field accepts a number only; no unit should be typed.

The recorded pKa for entry Oc1ccc(-c2cc(=S)ss2)cc1 equals 7.86

###

SYSTEM: Histone deacetylase
PROTOCOL: Inhibition of human HDAC in HeLa nuclear extracts
REPORTED_ENDPOINT: IC50 (µM)
Answer format: numeric, µM implied, no suffix.

> print(dat)
                chemical.string  scale.unit  reported.measurement
1                CS(=O)(=O)SCCO          µM                   102
2       Oc1ccc(-c2cc(=S)ss2)cc1          µM                  0.45
3  CCCC(CCC)C(=O)NCCSS(C)(=O)=O          µM                  17.5

Summary line: CCCC(CCC)C(=O)OCCSS(C)(=O)=O , Histone deacetylase, reported IC50 = 9.6

Form field, IC50 with Histone deacetylase, item CCCC(CCC)C(=O)Oc1ccc(-c2cc(=S)ss2)cc1 : 56.4
